Origin of measurements: patent US9850283B2

STUDY_SYSTEM: Human PD-L1/PD-1 (Homo sapiens)
Construct: made in house; host or cells: HEK293T
Sequence (Q9NZQ7 with tags, fused parts or gaps): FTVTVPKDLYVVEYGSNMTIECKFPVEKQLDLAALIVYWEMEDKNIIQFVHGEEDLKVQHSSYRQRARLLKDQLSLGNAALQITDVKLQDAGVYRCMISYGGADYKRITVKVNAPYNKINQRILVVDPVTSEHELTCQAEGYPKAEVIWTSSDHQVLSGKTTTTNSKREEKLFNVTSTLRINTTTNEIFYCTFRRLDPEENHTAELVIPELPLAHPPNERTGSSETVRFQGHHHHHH
ASSAY_EXPLANATION: HTRF PD-1-Ig/PD-L1-His binding assay (human PD-L1)
DETAILS: Table 8, Compound No. 1 variant macrocyclic peptides; read-out: HTRF Human PD-L1/PD-1 Binding Assay IC50
Positions of bridges follow the written chain, without caps; N, C: chain ends. Non-standard residues stand in square brackets, D forms with d. Residues, ends and D or L forms follow the SMILES beside them. ξ: configuration not given here. NMeNle = CCCC[C@H](NC)C(=O)O; NMeA = CN[C@@H](C)C(=O)O; ξP = O=C(O)C1CCCN1; Sar = CNCC(=O)O
MEASURED_PROPERTY: IC50 (nM)
State the answer as a number, implicitly in nM.

# IC50 of CCCC[C@H]1C(=O)N(C)[C@@H](CCCC)C(=O)N[C@@H](CCCNC(=N)N)C(=O)N[C@H](C(=O)NCC(N)=O)CSCC(=O)N[C@@H](Cc2ccccc2)C(=O)N(C)[C@@H](C)C(=O)N[C@@H](CC(N)=O)C(=O)N2CCCC2C(=O)N[C@@H](Cc2cnc[nH]2)C(=O)N[C@@H](C)C(=O)N(C)CC(=O)N[C@@H](Cc2c[nH]c3ccccc23)C(=O)N[C@@H](CO)C(=O)N[C@@H](Cc2c[nH]c3ccccc23)C(=O)N1C (stereo partly shown) [Compound No. 11] ({CH2CO}-F[NMeA]N[ξP]HA[Sar]WSW[NMeNle][NMeNle]RCG-NH2; thioether N-14) = 31
